Some variants, each annotated with its measured FACS-Seq fitted mean (log10).
B1: library; a variant is named by its letters at N, in order (parent)
chain: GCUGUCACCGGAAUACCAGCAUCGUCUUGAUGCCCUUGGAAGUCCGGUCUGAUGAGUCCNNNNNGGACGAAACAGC

- Variants of: B1
- Assay Overview: FACS-Seq fitted mean relative fluorescence mCherry/BFP with ligand (log10 relative fluorescence); ligand concentration (+) FACS-Seq: 1 mM; higher = higher reporter protein expression
- Settings: HEK293T, ligand present: yes
Measured Metric: FACS-Seq fitted mean (log10)

INSERT INTO results (sequence_input, experimental_value) VALUES
  ('GCUGUCACCGGAAUACCAGCAUCGUCUUGAUGCCCUUGGAAGUCCGGUCUGAUGAGUCCUUGCGGGACGAAACAGC [UUGCG]', 1.12),
  ('GCUGUCACCGGAAUACCAGCAUCGUCUUGAUGCCCUUGGAAGUCCGGUCUGAUGAGUCCACAUUGGACGAAACAGC [ACAUU]', 1.15),
  ('GCUGUCACCGGAAUACCAGCAUCGUCUUGAUGCCCUUGGAAGUCCGGUCUGAUGAGUCCACCUGGGACGAAACAGC [ACCUG]', 0.898),
  ('GCUGUCACCGGAAUACCAGCAUCGUCUUGAUGCCCUUGGAAGUCCGGUCUGAUGAGUCCCGAAAGGACGAAACAGC [CGAAA]', 0.587),
  ('GCUGUCACCGGAAUACCAGCAUCGUCUUGAUGCCCUUGGAAGUCCGGUCUGAUGAGUCCACCCCGGACGAAACAGC [ACCCC]', 0.657);
